Entries annotated with measured GI50
Test system: SK-MEL-5
experimental_details: NCI tumour cell line growth inhibition, 48 h
Calls of active or inactive are those of the source. No stated cut-off is given here; in the data, active = GI50 up to about 1.1 µM and inactive = higher.

Recorded results for 5 compounds are shown here.
[[record]]
compound = "COC(=O)C(C)NP(=O)(N1CC1)N1CC1 (stereo unspecified)"
result = "> 100 µM (inactive)"

[[record]]
compound = "Cc1ccc(O)c(-c2cscn2)c1"
result = "23.7 µM (inactive)"

[[record]]
compound = "COc1ccc(/C=c2/sc3n(c2=O)NC(c2ccc(Cl)cc2)NN=3)cc1 (stereo unspecified)"
result = "> 100 µM (inactive)"

[[record]]
compound = "CC(=O)OC1CCn2nnc(CO[Si](C)(C)C(C)(C)C)c21 (stereo unspecified)"
result = "> 100 µM (inactive)"

[[record]]
compound = "CNC(=O)OC(C)CN1c2ccccc2Sc2ccc(Cl)cc21 (stereo unspecified)"
result = "> 10 µM (inactive)"


Retrieve GI50 on SK-MEL-5; query O=C(O)CCC(NC(=O)c1ccc(Oc2nc3ccccc3nc2C(=O)O)cc1)C(=O)O (stereo unspecified)
> 100 µM (inactive)

# assay system SK-MEL-5: give GI50 of O=C(O)Cn1c(=O)[nH]c(=O)c2[nH]cnc21
> 100 µM (inactive)

Provide the reported GI50 (system: SK-MEL-5) for NC1CCC(c2cc3ccccc3s2)(N2CCCCC2)CC1 (stereo unspecified)
2.08 µM (inactive)

Recall the reported GI50 of COc1ccc(-c2nc(O)c3ccccc3n2)c(OC)c1 on SK-MEL-5 and write it down.
> 100 µM (inactive)

Enter GI50 (test system SK-MEL-5) for Cc1c2ccncc2c(C)c2c1[nH]c1ccc(Cl)cc12
4.75 µM (inactive)

###

Test system: OVCAR-8
experimental_details: NCI tumour cell line growth inhibition, 48 h
The source made the active and inactive calls. Rule as the data show it: active = GI50 up to about 1.1 µM and inactive = higher.
Your reply should match one of these outcome classes. Yes for active, No for inactive

Here are 5 molecules together with their reported answers.
[[record]]
molecule = "CCOC(=O)C1=CN(Cc2ccccc2)C2ON=C(c3ccc(Cl)cc3)C2C1 (configuration not stated)"
target_or_system = "OVCAR-8"
group = "No"

[[record]]
molecule = "Clc1nc(Nc2nc3ccccc3[nH]2)nc(Cl)c1-c1ccccc1"
target_or_system = "OVCAR-8"
group = "No"

[[record]]
molecule = "CCOC(=O)/C=C(/C(=O)OCC)n1cc(Cl)c(=O)n(CC(=O)OCC)c1=O"
target_or_system = "OVCAR-8"
group = "No"

[[record]]
molecule = "CCCC[S+]([O-])CC(CO)NC(=O)/C=C/c1c(C)[nH]c(=O)[nH]c1=O (configuration not stated)"
target_or_system = "OVCAR-8"
group = "No"

[[record]]
molecule = "CN(C)CCn1c(=O)c2ccc(NCCN3CCNCC3)c3c(=O)c4ccccc4n(c1=O)c23"
target_or_system = "OVCAR-8"
group = "No"


Answer briefly: the call reported for N=C(N)c1ccc(OCCCCCOc2ccc(C(=N)N)cc2)cc1 in this assay.
No

Dear colleague, could you share the recorded outcome for CN(C)CCCNc1ccnc2cc([N+](=O)[O-])ccc12 when you have a moment?
No

I would be grateful if you could indicate the recorded call for Cc1cc(N(C)c2ccccc2)nc(N(C)c2ccccc2)n1 .
No

Recorded call for COc1ccc(CNC2=N/C(=C\c3ccccc3Cl)C(=O)N2C)cc1 ?
No

Just curious, what result did COc1ccc(/C=C/C(=O)c2cc(OC)cc(OC)c2)cc1 get here?
No

Which result was noted for this molecule in the test: CCOC(=O)c1cn2c(n1)sc1cc(C)c(C)cc12
No

Just curious, what result did OC(CCl)CN1CC[N+]2(CC1)CC[N+]1(CCN(CC(O)CCl)CC1)CC2 (configuration not stated) [PROSPIDIUM CHLORIDE] get here?
No

What call does the record list for O=C1Nc2ccccc2N/C1=C\C(=O)C(F)F ?
No
